tested on: Botrytis cinerea; assay: Direct protectant activity against broad bean grey mould (BCB); type: in vivo; settings: direct protectant foliar spray, 600 ppm, 4 days
quantity-measured: disease control rating BCB

compound | result
CCCCCCNC1COC2(CCC(C(C)(C)C)CC2)C1 (stereo not shown) [Compound 40] | 0 (less than 50% disease control)
CC1CN(C2COC3(CCC(C(C)(C)C)CC3)C2)CC(C)O1 (stereo not shown) | 0 (less than 50% disease control)

Query :: In one line, give reported disease control rating BCB of the entry CC1CCN(C2COC3(CCC(C(C)(C)CC(C)(C)C)CC3)C2)CC1 (stereo not shown) .
Result :: 0 (less than 50% disease control)

Query :: Answer with reported disease control rating BCB of CC(C)(C)CNC1COC2(CCC(C(C)(C)C)CC2)C1 (stereo not shown)
Result :: 0 (less than 50% disease control)

Query :: Consider the compound CC(C)(C)C1CCC2(CC1)CC(NCc1ccc(Br)cc1)CO2 (stereo not shown) and give its recorded disease control rating BCB.
Result :: 0 (less than 50% disease control)

Query :: // fetch disease control rating BCB given entry CCCCN(CCCC)C1COC2(CCC(C(C)(C)C)CC2)C1 (stereo not shown)
Result :: 2 (greater than 80% disease control)

Query :: Tell me disease control rating BCB reported for CC(C)(C1CCCCC1)C1CCC2(CC1)CC(NC1CCCCC1)CO2 (stereo not shown)
Result :: 0 (less than 50% disease control)

Query :: Please look at this compound and report its disease control rating BCB: CN(C1CCCCC1)C1COC2(CCC(C(C)(C)C)CC2)C1 (stereo not shown) [Compound 20]
Result :: 0 (less than 50% disease control)

Query :: Output disease control rating BCB of CC(C)(C)C1CCC2(CC1)CC(NC1CC3CCC1C3)CO2 (stereo not shown)
Result :: 2 (greater than 80% disease control)

Query :: // fetch disease control rating BCB given entry CC(C)CNC1COC2(CCC(C(C)(C)C)CC2)C1 (stereo not shown)
Result :: 2 (greater than 80% disease control)

---

# disease control rating EGT listing for each entry below
test system: Erysiphe graminis f.sp. hordei; test: Activity against barley powdery mildew, direct therapeutic (EGT); assay type: in vivo; details: direct therapeutic foliar spray, 600 ppm, up to 7 days

molecule | result
CCCN(C(CC)CC)C1COC2(CCC(C(C)(C)C)CC2)C1 (stereo not shown) | 2 (greater than 80% disease control)
CC1CCC(NC2COC3(CCC(C(C)(C)C)CC3)C2)CC1 (stereo not shown) | 2 (greater than 80% disease control)

Query :: Look up and report measured disease control rating EGT (Erysiphe graminis f.sp. hordei) for the following molecule: CC1CCCCC1NC1COC2(CCC(C(C)(C)C)CC2)C1 (stereo not shown)
Result :: 2 (greater than 80% disease control)

Query :: Quote disease control rating EGT with test system Erysiphe graminis f.sp. hordei for CC(C)CN(C)C1COC2(CCC(C(C)(C)C)CC2)C1 (stereo not shown)
Result :: 2 (greater than 80% disease control)

Query :: Supply disease control rating EGT measured with Erysiphe graminis f.sp. hordei for CCCCCCNC1CC2(CCC(C(C)(C)C)CC2)OC1C (stereo not shown) .
Result :: 2 (greater than 80% disease control)

---

test system: Botrytis cinerea; test: Direct protectant activity against broad bean grey mould (BCB); type: in vivo; settings: direct protectant foliar spray, 600 ppm, 4 days
The entries below come with measured disease control rating BCB values attached.

See these solved cases before continuing.
molecule | disease control rating BCB
CC(=CC(=O)CC(C)C)NC1COC2(CCC(C(C)(C)C)CC2)C1 (centres unmarked) | 0 (less than 50% disease control)
CC(C)(C)C1CCC2(CC1)CC(N1CCCCCC1)CO2 (centres unmarked) | 2 (greater than 80% disease control)
CCC(CC)N(C)C1COC2(CCC(C(C)(C)C)CC2)C1 (centres unmarked) | 0 (less than 50% disease control)
CC(C)(C)C1CCC2(CC1)CC(NC1CCC(O)CC1)CO2 (centres unmarked) | 2 (greater than 80% disease control)
CC1CCCCC1NC1COC2(CCC(C(C)(C)C)CC2)C1 (centres unmarked) | 0 (less than 50% disease control)

Query :: Give disease control rating BCB for CCCCCCN(C)C1COC2(CCCCC2)C1 (centres unmarked)
Result :: 0 (less than 50% disease control)

Query :: For the molecule CC1CC(C)CN(C2COC3(CCC(C(C)(C)CC(C)(C)C)CC3)C2)C1 (centres unmarked) , give its reported disease control rating BCB.
Result :: 0 (less than 50% disease control)

---

disease control rating BCB overview
test system: Botrytis cinerea; assay: Direct protectant activity against broad bean grey mould (BCB); type: in vivo; details: direct protectant foliar spray, 600 ppm, 4 days

Below, each entry is followed by its recorded disease control rating BCB result.
compound | result
Clc1ccc(CNC2COC3(CCCCC3)C2)cc1 (centres unmarked) | 0 (less than 50% disease control)
CCCCCCN(C)C1COC2(CCC(c3ccccc3)CC2)C1 (centres unmarked) | 0 (less than 50% disease control)

Query :: Give disease control rating BCB for this entry on Botrytis cinerea: CCCCCCNCC1COC2(CCC(C(C)(C)C)CC2)C1 (centres unmarked)
Result :: 2 (greater than 80% disease control)

Query :: Enter measured disease control rating BCB, system Botrytis cinerea, for the compound shown: CCCCCCCCCCCCNC1COC2(CCC(C(C)(C)C)CC2)C1 (centres unmarked)
Result :: 0 (less than 50% disease control)

Query :: Report value only: disease control rating BCB, Botrytis cinerea, CC1CC(C)CN(C2COC3(CCC(C(C)(C)C)CC3)C2)C1 (centres unmarked)
Result :: 0 (less than 50% disease control)

---

tested on: Plasmopara viticola; assay: Antisporulant activity against vine downy mildew (PVA); format: in vivo; settings: vine leaves, antisporulant foliar spray, 600 ppm, 750 l/ha
quantity-measured: disease control rating PVA

Would you please look over these solved cases?
molecule | study-system | result
CC(C)(C)C1CCC2(CC1)CC(CN)CO2 (stereo not shown) | Plasmopara viticola | 0 (less than 50% disease control)
CCCCCN(CC(C)C)C1COC2(CCC(C(C)(C)C)CC2)C1 (stereo not shown) | Plasmopara viticola | 0 (less than 50% disease control)
CC(C)(C)C1CCC2(CC1)CC(O)(CNC1CCCCC1)CO2 (single isomer, unassigned) | Plasmopara viticola | 0 (less than 50% disease control)

Query :: Retrieve disease control rating PVA measured for CCCN(C(CC)CC)C1COC2(CCC(C(C)(C)C)CC2)C1 (stereo not shown) and print it.
Result :: 0 (less than 50% disease control)

---

tested on: Phytophthora infestans; type: in vivo; settings: tomato, direct protectant foliar spray
molecules and their reported disease control rating PIP

// worked examples, disease control rating PIP included
molecule | disease control rating PIP
CCCCCCCCCCCCCCCCCCNC1COC2(CCC(C(C)(C)C)CC2)C1 (stereo not drawn) | 0 (less than 50% disease control)
CC(C)(C)C1CCC2(CC1)CC(NC1CC3CCC1C3)CO2 (stereo not drawn) | 2 (greater than 80% disease control)

Query :: Write down disease control rating PIP measured for item CC(C)(C1CCCCC1)C1CCC2(CC1)CC(NC1CCCCC1)CO2 (stereo not drawn)
Result :: 1 (about 50-80% disease control)

Query :: State its disease control rating PIP for this molecule: c1ccc(CNC2COC3(CCCCC3)C2)cc1 (stereo not drawn)
Result :: 0 (less than 50% disease control)

Query :: Supply recorded disease control rating PIP for CC(C)(C)C1CCC2(CC1)CC(N1CCC3CCCCC3C1)CO2 (stereo not drawn) here.
Result :: 0 (less than 50% disease control)

Query :: Fill in disease control rating PIP for record CCCCC(CC)NC1COC2(CCC(C(C)(C)C)CC2)C1 (stereo not drawn)
Result :: 0 (less than 50% disease control)

Query :: Please give measured disease control rating PIP of the following entry: CCCCCNC1COC2(CCC(C(C)(C)C)CC2)C1 (stereo not drawn)
Result :: 0 (less than 50% disease control)

Query :: Give me measured disease control rating PIP, please, for this molecule: CC(C)(C)C1CCC2(CC1)CC(N)CO2 (stereo not drawn)
Result :: 2 (greater than 80% disease control)

Query :: Quickly give me recorded disease control rating PIP for CN(CC1CCCCC1)C1COC2(CCC(C(C)(C)C)CC2)C1 (stereo not drawn)
Result :: 2 (greater than 80% disease control)

---

system: Pyricularia oryzae; format: in vivo; conditions: Table VIa; host plants sprayed; solution of 400 ppm and dilutions
Here, each record is paired with measured disease control rating RB data.

compound | disease control rating RB
CCCCCC(C)NCCC1COC2(CCC(C(C)(C)C)CC2)C1 (centres unmarked) | 0 (0)
CCCCC(CC)NCCC1COC2(CCC(C(C)(C)C)CC2)C1 (centres unmarked) | 0 (0)
CC(C)(C)C1CCC2(CC1)CC(CCNC1CCCCCC1)CO2 (centres unmarked) | 7 (90-95)

Shift focus to the following entry.
Query :: For the compound CN(CC1COC2(CCC(C(C)(C)C)CC2)C1)C1CCCCC1 (centres unmarked) , report disease control rating RB.
Result :: 0 (0)

---

tested on: Botrytis cinerea; assay: In vivo fungicidal activity, Pepper Botrytis (PB); conditions: Table VIa; host plants sprayed; solution of 400 ppm and dilutions; further: ranges in brackets are in %
Reported disease control rating PB values follow for various compounds

Take a look at these entries with their results.
compound | quantity-measured | result
CCCCCC(C)N(C)CCC1COC2(CCC(C(C)(C)C)CC2)C1 (centres unmarked) [Compound 201] | disease control rating PB | 3 (30-44)
CC1CCCC(NCCC2COC3(CCC(C(C)(C)C)CC3)C2)C1 (centres unmarked) [Compound 192] | disease control rating PB | 8 (96-99)
CCCC(CCC)NCCC1COC2(CCC(C(C)(C)C)CC2)C1 (centres unmarked) [Compound 193] | disease control rating PB | 7 (90-95)
CC(C)(C)C1CCC2(CC1)CC(CCNC1CCCCCC1)CO2 (centres unmarked) [Compound 195] | disease control rating PB | 5 (60-74)

Query :: Supply disease control rating PB value. Item: CCN(CCC1COC2(CCC(C(C)(C)C)CC2)C1)C1CCCCC1 (centres unmarked) [Compound 200]
Result :: 8 (96-99)

Query :: Identify measured disease control rating PB associated with CN(CCC1COC2(CCC(C(C)(C)C)CC2)C1)C1CCCCC1 (centres unmarked) [Compound 199]
Result :: 7 (90-95)
